# ASSAY: ATG_Ets_CIS: Attagene CIS-FACTORIAL HepG2 Assay for human Erythroblast Transformation Specific (ETS) (AID 2282941)
# ASSAY_CONTEXT: HepG2 ETS cis-reporter transcription, actives raise or lower the signal
Active and inactive are the calls of the source. How the source made its calls: active means hit-call score of the fitted dose curve at least 0.9, where 1 is the maximum; inactive means score below 0.9.
RECORDED_ENDPOINT: outcome

Use these answered entries as a reference point.
INSERT INTO assay_data (molecule, recorded_endpoint, recorded_value) VALUES
  ('c1ccc(NNc2ccccc2)cc1', 'outcome', 'inactive'),
  ('CC(C)COC(=O)c1ccccc1C(=O)OCC(C)C', 'outcome', 'inactive'),
  ('O=[N+]([O-])C(Br)(CO)CO', 'outcome', 'inactive'),
  ('O=C1CCCO1', 'outcome', 'inactive'),
  ('Cn1cc(-c2ccccc2)c(=O)c(-c2cccc(C(F)(F)F)c2)c1', 'outcome', 'inactive'),
  ('CC(C)(O)c1cnn2c(-c3ccc(F)c(-c4c(F)cccc4C#N)c3)cnc2n1', 'outcome', 'inactive'),
  ('c1ccc2c(c1)oc1ccccc12', 'outcome', 'inactive'),
  ('ClC1=C(Cl)[C@]2(Cl)[C@H]3[C@H]([C@@H]4C=C[C@H]3C4)[C@@]1(Cl)C2(Cl)Cl', 'outcome', 'inactive');

Now look at this one.
**Q:** // fetch outcome given entry CC(C)(C)C(O)(CCc1ccc(Cl)cc1)Cn1cncn1 (centres undefined)
**A:** inactive
